Tested on: HepG2
assayProcedure: cytotoxicity call (relative viability < 0.9)
statedConditions: 10 µM
Among all 39,000 compounds or so, about 3,300 (8.5%) were called active. Many of the other results were omitted from the sample, so actives are more common in it than they were.
readoutType: cytotoxicity call

- givenSmiles: "C[C@@H]1CN([C@H](C)CO)C(=O)c2cccc(NC(=O)Nc3cccc4ccccc34)c2O[C@@H]1CN(C)S(=O)(=O)c1cccs1"
  cytotoxicity call: "active"
- givenSmiles: "COc1ccc(S(=O)(=O)N(C)C[C@@H]2Oc3c(NC(=O)Nc4cccc5ccccc45)cccc3C(=O)N([C@H](C)CO)C[C@@H]2C)cc1"
  cytotoxicity call: "inactive"
- givenSmiles: "C[C@@H]1CN([C@@H](C)CO)C(=O)c2cccc(NC(=O)Nc3cccc4ccccc34)c2O[C@@H]1CN(C)S(=O)(=O)c1cccs1"
  cytotoxicity call: "inactive"
- givenSmiles: "Cc1ccc(S(=O)(=O)N(C)C[C@H]2Oc3ccc(NC(=O)CCN4CCOCC4)cc3C(=O)N([C@@H](C)CO)C[C@H]2C)cc1"
  cytotoxicity call: "inactive"
- givenSmiles: "C[C@@H]1CN([C@@H](C)CO)C(=O)c2cccc(NC(=O)Nc3cccc4ccccc34)c2O[C@H]1CN(C)S(=O)(=O)c1cccs1"
  cytotoxicity call: "inactive"
- givenSmiles: "COc1ccc(S(=O)(=O)N(C)C[C@@H]2Oc3ccc(NC(=O)C4CC4)cc3C(=O)N([C@@H](C)CO)C[C@H]2C)cc1"
  cytotoxicity call: "inactive"
- givenSmiles: "COc1ccc(S(=O)(=O)N(C)C[C@@H]2Oc3c(NC(=O)Nc4cccc5ccccc45)cccc3C(=O)N([C@H](C)CO)C[C@H]2C)cc1"
  cytotoxicity call: "active"
- givenSmiles: "COc1ccc(S(=O)(=O)N(C)C[C@H]2Oc3ccc(N(C)C)cc3C(=O)N([C@@H](C)CO)C[C@H]2C)cc1"
  cytotoxicity call: "inactive"

For each of the compounds below, note its cytotoxicity call.
1. CN1C(=O)c2cc(NS(=O)(=O)c3cccc(F)c3)ccc2OC[C@H]2O[C@H](CC(=O)NCCN3CCCCC3)CC[C@H]21
2. C[C@H](CO)N1C[C@H](C)[C@@H](CN(C)C(=O)CCC(F)(F)F)OCCCC[C@H](C)Oc2ccc(NC(=O)C3CCCCC3)cc2C1=O
3. COc1ccc(S(=O)(=O)N(C)C[C@@H]2Oc3c(NC(=O)Nc4cccc5ccccc45)cccc3C(=O)N(C(C)C)C[C@H]2C)cc1
4. NCc1ccno1

inactive
inactive
inactive
inactive

For each of the compounds below, note its cytotoxicity call.
1. CC(C)c1nc2cc3sc(C(C)C)nc3cc2s1
2. COc1ccc(S(=O)(=O)N(C)C[C@@H]2Oc3ccc(N(C)C)cc3C(=O)N([C@H](C)CO)C[C@@H]2C)cc1

inactive
inactive

For each of the compounds below, note its cytotoxicity call.
1. COc1ccc(S(=O)(=O)N(C)C[C@H]2Oc3ccc(NC(=O)C4CC4)cc3C(=O)N([C@@H](C)CO)C[C@@H]2C)cc1
2. CS(=O)(=O)N1CCn2cc(Cn3cccn3)nc2C1

active
inactive
